biological target: Cysteinyl leukotriene receptor 1 (Cavia porcellus) (UniProt Q2NNR5); assay: Antagonistic activity against leukotriene D4 (LTD4) receptor; type: functional
Sequence (Q2NNR5 whole entry): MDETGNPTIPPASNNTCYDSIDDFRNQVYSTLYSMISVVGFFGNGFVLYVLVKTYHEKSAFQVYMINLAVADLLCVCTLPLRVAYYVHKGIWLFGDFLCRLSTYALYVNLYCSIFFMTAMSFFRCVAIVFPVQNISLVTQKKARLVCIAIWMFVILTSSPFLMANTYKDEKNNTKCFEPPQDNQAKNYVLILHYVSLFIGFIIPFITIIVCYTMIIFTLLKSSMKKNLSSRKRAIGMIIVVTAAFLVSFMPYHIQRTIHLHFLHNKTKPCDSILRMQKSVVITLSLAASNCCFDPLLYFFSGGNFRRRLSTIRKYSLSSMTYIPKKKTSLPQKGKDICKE
MEASUREMENT KIND: pKB

CCCCCCCCCCOc1ccc(-c2nnn(CCCCc3nnn[nH]3)n2)cc1: 5.09
FC(F)(F)CCCCCOc1ccc(-c2nnn(CCCCc3nnn[nH]3)n2)cc1: 5.82
c1ccc(CCCCCCOc2ccc(-c3nnn(CCCCc4nnn[nH]4)n3)cc2)cc1: 5.83
c1ccc2nc(COc3ccc(-c4nnn(CCCCc5nnn[nH]5)n4)cc3)ccc2c1: 6.68
c1ccc(CCCCOc2ccc(-c3nnn(CCCc4nnn[nH]4)n3)cc2)cc1: 6.86
FC(F)(F)CCCCCCCOc1ccc(-c2nnn(CCCCc3nnn[nH]3)n2)cc1: 5.43
c1ccc2oc(COc3ccc(-c4nnn(CCCCc5nnn[nH]5)n4)cc3)cc2c1: 6.36
O=C(O)CCCCn1nnc(-c2ccc(OCCCCc3ccccc3)cc2)n1: 5.97
c1ccc(CCCCOc2ccc(-c3nnn(CCCCCc4nnn[nH]4)n3)cc2)cc1: 6.54
NC(=O)CCCCn1nnc(-c2ccc(OCCCCc3ccccc3)cc2)n1: 5.41
